Test system: 6 Hz (32 mA) seizures
measurement-description: 6 Hz (32 mA) psychomotor seizure model
test-conditions: TD50 rotarod / ED50 6 Hz (32 mA)
result-type: PI (TD50/ED50) 6 Hz

See these solved cases before continuing.
Recorded PI (TD50/ED50) 6 Hz of CC(C(=O)NCc1ccc(OCc2ccccc2)cc1)N1C(=O)CCC1=O (centres unmarked) , please.
> 6.6

So what does the record say about PI (TD50/ED50) 6 Hz for CC(C(=O)NCc1ccc(OCc2ccccc2Cl)cc1)N1C(=O)CCC1=O (centres unmarked) ?
> 5.2

Requested field: PI (TD50/ED50) 6 Hz. Item: CC(C(=O)NCc1ccc(OCc2cccc(Cl)c2)cc1)N1C(=O)CCC1=O (centres unmarked)
> 5.0

Item under review: CC(C(=O)NCc1ccc(OCc2ccc(OC(F)(F)F)cc2)cc1)N1CCCC1=O (centres unmarked) . Reported PI (TD50/ED50) 6 Hz?
< 8.0

Further cases:
# PI (TD50/ED50) 6 Hz lookup, item CC(C(=O)NCc1ccc(OCc2cccc(F)c2)cc1)N1C(=O)CCC1=O (centres unmarked)
> 4.2

---

Test system: 6 Hz (32 mA) seizures
measurement-description: 6 Hz (32 mA) psychomotor seizure model;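 note: adult male albino Swiss CD-1 mice, each used once, with compounds suspended in 1% Tween 80 in water as vehicle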
test-conditions: mice i.p., 100 mg/kg, 0.5 h, four mice
result-type: protection (efficacy) in the 6 Hz (32 mA) screening (%)
Express your answer in %, writing the number without its unit.

Example cases with answers are listed next.
Recorded protection (efficacy) in the 6 Hz (32 mA) screening for CC(C(=O)NCc1ccc(OCc2cccc(Cl)c2)cc1)N1C(=O)CCC1=O (stereo not drawn) , please?
75

Which protection (efficacy) in the 6 Hz (32 mA) screening value is on record for CC(C(=O)NCc1ccc(OCc2ccc(Cl)cc2)cc1)N1C(=O)CCC1=O (stereo not drawn) ?
25

Entry CC(C(=O)NCc1ccc(OCc2ccc(F)cc2)cc1)N1C(=O)CCC1=O (stereo not drawn) : reported protection (efficacy) in the 6 Hz (32 mA) screening = ?
50

Param item = CC(C(=O)NCc1ccc(OCc2ccccc2Cl)cc1)N1C(=O)CCC1=O (stereo not drawn) ; retrieve measured protection (efficacy) in the 6 Hz (32 mA) screening.
75

Return reported protection (efficacy) in the 6 Hz (32 mA) screening; argument: CC(C(=O)NCc1ccc(OCc2ccccc2F)cc1)N1C(=O)CCC1=O (stereo not drawn)
100

Moving on to the next compound.
Which value of protection (efficacy) in the 6 Hz (32 mA) screening has been reported for CC(C(=O)NCc1ccc(OCc2cccc(F)c2)cc1)N1C(=O)CCC1=O (stereo not drawn) in the records?
100

---

target-system: human recombinant MAO-B (Homo sapiens, UniProt P27338)
Construct: purchased Sigma Aldrich
Sequence (P27338 1-520): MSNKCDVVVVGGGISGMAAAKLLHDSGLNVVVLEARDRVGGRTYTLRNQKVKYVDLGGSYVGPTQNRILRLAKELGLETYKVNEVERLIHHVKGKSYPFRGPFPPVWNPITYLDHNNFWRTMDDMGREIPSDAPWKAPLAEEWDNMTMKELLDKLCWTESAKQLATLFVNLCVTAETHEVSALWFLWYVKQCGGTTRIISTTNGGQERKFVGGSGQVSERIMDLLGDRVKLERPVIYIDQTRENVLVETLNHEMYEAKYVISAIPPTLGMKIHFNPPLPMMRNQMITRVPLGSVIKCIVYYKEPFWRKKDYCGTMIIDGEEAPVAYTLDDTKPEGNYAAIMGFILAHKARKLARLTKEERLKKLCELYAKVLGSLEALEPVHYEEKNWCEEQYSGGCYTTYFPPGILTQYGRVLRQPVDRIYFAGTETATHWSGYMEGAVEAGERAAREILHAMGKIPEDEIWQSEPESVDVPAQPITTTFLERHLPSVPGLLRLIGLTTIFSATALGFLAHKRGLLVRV
measurement-description: fluorometric monoamine oxidase B inhibition assay
Assay type: biochemical
test-conditions: read-out: % inhibition MAO-B (1 µM), mean of two independent experiments
result-type: inhibition at 1 µM
Write the numeric value and follow it with the unit.

Recall the recorded inhibition at 1 µM for CC(C(=O)NCc1ccc(OCc2ccccc2)cc1)N1CCCC1=O (centres unmarked) with human recombinant MAO-B (Homo sapiens, UniProt P27338) and state it.
0%

Recorded inhibition at 1 µM for CC(C(=O)NCc1ccc(OCc2cccc(OC(F)(F)F)c2)cc1)N1C(=O)CCC1=O (centres unmarked) with human recombinant MAO-B (Homo sapiens, UniProt P27338), please?
31%

---

measurement-description: rotarod test (acute neurological toxicity, motor coordination)
Type: in vivo
test-conditions: male, CD-1 (albino Swiss), mouse, in vivo, ip, mice i.p.
Below, each of the molecules is paired with its reported TD50 at 0.5 h value.

Consider the molecule shown here: CC(C(=O)NCc1ccc(OCc2cccc(C(F)(F)F)c2)cc1)N1CCCC1=O (centres unmarked) [Compound 38] What is its recorded TD50 at 0.5 h?
> 300 mg/kg

Using the record for CC(C(=O)NCc1ccc(OCc2ccccc2C(F)(F)F)cc1)N1C(=O)CCC1=O (centres unmarked) [Compound 12] , report its TD50 at 0.5 h.
> 300 mg/kg

I have this molecule here, CC(C(=O)NCc1ccc(OCc2ccccc2)cc1)N1C(=O)CCC1=O (centres unmarked) [Compound 5] , and I need its recorded TD50 at 0.5 h.
> 300 mg/kg

Others:
Could you share which TD50 at 0.5 h value was measured for CC(C(=O)NCc1ccc(OCc2ccc(OC(F)(F)F)cc2)cc1)N1CCCC1=O (centres unmarked) [Compound 39] ?
< 300 mg/kg

Field request: TD50 at 0.5 h | item: Cc1ccccc1COc1ccc(CNC(=O)C(C)N2C(=O)CCC2=O)cc1 (centres unmarked) [Compound 18]
> 300 mg/kg

---

target-system: hERG potassium channel (Homo sapiens)
Construct: Cerep Laboratories / Eurofins (contract assay)
Sequence (Q12809 whole entry): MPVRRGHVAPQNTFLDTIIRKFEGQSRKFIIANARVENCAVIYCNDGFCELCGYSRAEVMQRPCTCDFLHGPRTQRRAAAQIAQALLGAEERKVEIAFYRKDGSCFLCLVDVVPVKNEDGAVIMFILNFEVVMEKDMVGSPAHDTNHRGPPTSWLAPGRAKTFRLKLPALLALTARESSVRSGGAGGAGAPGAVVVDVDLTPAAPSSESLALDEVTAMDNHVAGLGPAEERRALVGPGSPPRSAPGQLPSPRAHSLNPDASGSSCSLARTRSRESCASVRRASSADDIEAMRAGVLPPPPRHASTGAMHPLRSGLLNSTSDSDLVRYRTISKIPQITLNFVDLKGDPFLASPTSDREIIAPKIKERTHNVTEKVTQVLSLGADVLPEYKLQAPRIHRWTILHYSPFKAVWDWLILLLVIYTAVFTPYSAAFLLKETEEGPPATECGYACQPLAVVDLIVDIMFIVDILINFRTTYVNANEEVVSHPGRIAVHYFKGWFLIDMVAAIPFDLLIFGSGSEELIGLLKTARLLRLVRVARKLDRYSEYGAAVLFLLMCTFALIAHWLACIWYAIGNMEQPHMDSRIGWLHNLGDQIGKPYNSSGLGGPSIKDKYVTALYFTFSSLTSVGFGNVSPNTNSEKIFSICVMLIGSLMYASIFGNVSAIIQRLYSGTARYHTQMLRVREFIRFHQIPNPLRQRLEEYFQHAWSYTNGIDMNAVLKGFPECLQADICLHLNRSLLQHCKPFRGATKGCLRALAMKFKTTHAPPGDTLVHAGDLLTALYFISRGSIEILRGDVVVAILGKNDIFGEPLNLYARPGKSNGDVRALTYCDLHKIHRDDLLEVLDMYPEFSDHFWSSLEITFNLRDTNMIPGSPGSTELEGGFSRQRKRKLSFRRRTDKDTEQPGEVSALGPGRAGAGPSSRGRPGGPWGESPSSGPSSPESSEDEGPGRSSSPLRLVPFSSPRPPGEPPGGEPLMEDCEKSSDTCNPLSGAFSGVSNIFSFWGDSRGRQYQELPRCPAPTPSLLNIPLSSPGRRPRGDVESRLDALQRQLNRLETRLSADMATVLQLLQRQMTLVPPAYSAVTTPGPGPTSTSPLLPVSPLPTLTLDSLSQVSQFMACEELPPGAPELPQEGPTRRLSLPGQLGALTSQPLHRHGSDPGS
measurement-description: radioligand binding potassium channel (hERG)
test-conditions: HEK-293 cells expressing human recombinant hERG, human recombinant HEK-293 cell, read-out: % Inhibition of Control Specific Binding
Description: Binding/functional studies were performed commercially in Cerep Laboratories (Poitiers, France) using testing procedures described elsewhere. The general information is listed in Table S3 in the Supporting Information. Table S3. The general information of radioligand binding/functional assays. […] Potassium channel (hERG) […] Assays were performed commercially in Eurofins Cerep SA (Celle l’Evescault, France) and Eurofins […]
result-type: inhibition at 100 µM (%)
Give just the numeric value; % need not be written.

# query: inhibition at 100 µM of entry CC(C(=O)NCc1ccc(OCc2ccccc2)cc1)N1C(=O)CCC1=O (stereo not shown)
4.5

---

result-type: melting point

// solved cases for melting point follow
Could you tell me which melting point is on file for CC(C(=O)NCc1ccc(OCc2cccc(C(F)(F)F)c2)cc1)N1CCCC1=O (stereo not drawn) ?
123.5 to 123.8 °C

# input compound: CC(C(=O)NCc1ccc(OCc2ccccc2OC(F)(F)F)cc1)N1C(=O)CCC1=O (stereo not drawn) ; wanted: its melting point
110.5 to 111.2 °C

Item CC(C(=O)NCc1ccc(OCc2ccccc2C(F)(F)F)cc1)N1CCCC1=O (stereo not drawn) has what recorded melting point?
121.8 to 122.5 °C

Consider the compound CC(C(=O)NCc1ccc(OCc2cccc(OC(F)(F)F)c2)cc1)N1C(=O)CCC1=O (stereo not drawn) and give its measured melting point.
112.2 to 112.9 °C

What value of melting point has been recorded for this entry: CC(C(=O)NCc1ccc(OCc2ccccc2)cc1)N1CCCC1=O (stereo not drawn)
110.5 to 110.9 °C

Can you look up the measured melting point of Cc1ccccc1COc1ccc(CNC(=O)C(C)N2C(=O)CCC2=O)cc1 (stereo not drawn) for me?
126.1 to 126.8 °C

---
What value of melting point has been recorded for this entry: CC(C(=O)NCc1ccc(OCc2ccc(OC(F)(F)F)cc2)cc1)N1C(=O)CCC1=O (stereo not drawn)
104.1 to 104.8 °C

---

Tested on: maximal electroshock (MES) seizures
measurement-description: maximal electroshock seizure (MES) test
Format: in vivo, mice
test-conditions: TD50 rotarod / ED50 MES
result-type: PI (TD50/ED50) MES

Request: PI (TD50/ED50) MES, test system maximal electroshock (MES) seizures, entry CC(C(=O)NCc1ccc(OCc2cccc(Cl)c2)cc1)N1C(=O)CCC1=O (centres unmarked)
> 5.9

Continuing:
Any idea what PI (TD50/ED50) MES came out for CC(C(=O)NCc1ccc(OCc2cccc(F)c2)cc1)N1C(=O)CCC1=O (centres unmarked) on maximal electroshock (MES) seizures?
> 3.8

# returns recorded PI (TD50/ED50) MES (system: maximal electroshock (MES) seizures) for CC(C(=O)NCc1ccc(OCc2ccc(OC(F)(F)F)cc2)cc1)N1CCCC1=O (centres unmarked)
< 8.3

Please state recorded PI (TD50/ED50) MES (tested on maximal electroshock (MES) seizures) of CC(C(=O)NCc1ccc(OCc2ccccc2)cc1)N1C(=O)CCC1=O (centres unmarked)
> 6.3

Short answer please: PI (TD50/ED50) MES, maximal electroshock (MES) seizures, entry CC(C(=O)NCc1ccc(OCc2ccccc2Cl)cc1)N1C(=O)CCC1=O (centres unmarked)
> 6.3
